Test: physchem
Conditions: fassgf or other biorelevant
# if value of solubility reaches 200 µg/mL, tag MET; if it stays below, tag NOT MET

Record excerpt, results attached:
CCOC(=O)CCn1c2c(c3ccccc31)CCN1C(=O)c3ccccc3N(C)C21 (stereo not drawn) [2-22, N13-(2-(Ethoxycarbonyl)ethyl)evodiamine]    MET
CN1c2ccccc2C(=O)N2CCc3c(n(CCCCCl)c4ccccc34)C21 (stereo not drawn)    MET
CON=CCn1c2c(c3ccccc31)CCN1C(=O)c3ccccc3N(C)C21 (stereo not drawn)    NOT MET
CN1c2ccccc2C(=O)N2CCc3c(n(CCCc4ccccc4)c4ccccc34)C21 (stereo not drawn)    NOT MET
COCCOCCn1c2c(c3ccccc31)CCN1C(=O)c3ccccc3N(C)C21 (stereo not drawn)    NOT MET
CN1c2ccccc2C(=O)N2CCc3c(n(CCO)c4ccccc34)C21 (stereo not drawn)    MET
CC(=O)OCCCn1c2c(c3ccccc31)CCN1C(=O)c3ccccc3N(C)C21 (stereo not drawn)    MET
CN1c2ccccc2C(=O)N2CCc3c(n(CC=O)c4ccccc34)C21 (stereo not drawn) [compound 6, 2-(Evodiamin-N13-yl)acetaldehyde]    NOT MET
CCCCn1c2c(c3ccccc31)CCN1C(=O)c3ccccc3N(C)C21 (stereo not drawn)    MET
CC(C)CCn1c2c(c3ccccc31)CCN1C(=O)c3ccccc3N(C)C21 (stereo not drawn)    MET

# input Does the reported solubility for CC(C)Cn1c2c(c3ccccc31)CCN1C(=O)c3ccccc3N(C)C21 (stereo not drawn) fall at or above the 200 µg/mL mark?
# output MET

# input Does the reported solubility for C=CCn1c2c(c3ccccc31)CCN1C(=O)c3ccccc3N(C)C21 (stereo not drawn) fall at or above the 200 µg/mL mark?
# output NOT MET

# input Does the reported solubility for CCOC(Cn1c2c(c3ccccc31)CCN1C(=O)c3ccccc3N(C)C21)OCC (stereo not drawn) fall at or above the 200 µg/mL mark?
# output MET
